Measured growth, listed per entry for reference.
- Tested on: HS 578T breast
- experimental-details: NCI-60 one-dose screen, 48 h (100 = growth as untreated, 0 = no growth, -100 = all killed)
- setup-conditions: 10 µM
This is part of a sample that, as a whole, favours compounds with a hit. Of some 83,000 tested, about 20% had one in any assay.
The reply should contain only the number, in %.

1) Fc1ccc(Nc2ccnc(N3CCN(c4ccnc5cc(Cl)ccc45)CC3)n2)cc1	61.4
2) CCN(CC)CC(O)CNc1ccnc2cc(Cl)c(Cl)cc12 (centres undefined)	103
3) CC(C)=C1CCC(C)C/C1=N\N=C(N)N (centres undefined)	105
4) CNC(=S)Sc1ccc([N+](=O)[O-])cc1[N+](=O)[O-]	88.2
5) COc1cccc(C2(C)Nc3ccccc3-c3nc4ccccc4n32)c1 (centres undefined)	112
6) CC(Oc1ccc(Cl)cc1)c1ccccc1 (centres undefined)	104
7) CN(C)c1ccc2c(c1)OC(N)=C(C#N)C2c1ccc2c(c1)CCO2 (centres undefined)	23.1
8) NC(=O)C12C(=O)NC(=O)C1(C(=O)O)C21CCCC1 (centres undefined)	107

q: What does the record list as growth for `CCOC(=O)c1cc(-c2ccccc2)nc(N)n1` ?
a: 92.5
